Test system: SRPK3
conditionSet: concentration: 1 μM, replicates: in singlicate; n = 1;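 note: KINOMEscan kinase panel screen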
Define the label as 1.0 when %Inh is strictly less than 5% and as 0.0 in all remaining cases.

O=C(Nc1cccc(-c2nn3ncccc3c2-c2ccnc(Nc3ccccc3)n2)c1)c1c(F)cccc1F    1.0
O=C(NC1CCN(c2ccnc(Nc3ccc(F)cc3)n2)C1)c1cc2ccccc2s1 (stereo not drawn)    1.0
Cn1cc(-c2ccc3c(c2)CCN3C(=O)Cc2cccc(F)c2)c2c(N)ncnc21    0.0
Nc1ncc(-c2ccc3nccc(-c4ccncc4)c3c2)cc1S(=O)(=O)N1CCOCC1    1.0
Oc1cc(Nc2ccnc3cc(I)ccc23)ccc1F    0.0
FC(F)(F)c1ccc(/C=C/c2cncnc2Nc2ccc3[nH]c(Cc4ccccc4)nc3c2)cc1    1.0
COc1cc2c(cc1OCCN1CCNCC1)ncc1c3ccc(C#N)cc3[nH]c21    0.0
C[C@@H](Oc1cc(-n2cnc3cc(-c4ccnc(NCCS(C)(=O)=O)c4)ccc32)sc1C(N)=O)c1ccccc1Cl    0.0
O=C(Nc1n[nH]c2cc(-c3ccoc3)ccc12)C1CC1    0.0
CN1CCN(CCCNc2nccc(-c3c(-c4ccc(F)cc4)nn4cc(C(F)(F)F)ccc34)n2)CC1    0.0
O=C(Nc1cccc(-c2nn3ccccc3c2-c2ccnc(Nc3cccc(C(F)(F)F)c3)n2)c1)c1c(F)cccc1F    0.0
Cc1ccc(C)c(NC(=O)NC2CCN(c3ccnc(Nc4ccc(F)cc4)n3)C2)c1 (stereo not drawn)    1.0
CC(C)(C)c1ccc2nccc(Nc3cccc(O)c3)c2c1    0.0
Cl.NC(=O)c1cccc(Nc2nccc(Nc3ccc(Oc4c(Cl)cccc4Cl)c(Cl)c3)n2)c1    0.0
COc1cccc(C(=O)Nc2cccc(Oc3ccc4nc(NC(=O)C5CC5)cn4n3)c2)c1    1.0
c1ccc(-c2n[nH]cc2Nc2ccnc3ccccc23)nc1    0.0
C[C@@H]1CC[C@@H](C(=O)Nc2ccccc2)CN1c1cc(-c2ccc3c(N)n[nH]c3c2)nc(N)n1    1.0
CCc1ccc(-c2ccc3c(c2)-c2c(cnn2C)S(=O)(=O)N3C)cc1    0.0
Nc1n[nH]c2cnc(-c3ccccc3)cc12    0.0
O=C(Nc1cccc(-c2nn3ccccc3c2-c2ccnc(Nc3cccc(F)c3)n2)c1)c1c(F)ccc(F)c1Cl    1.0

---

Items are presented alongside their recorded %Inh.
Tested on: ACVR2B
conditionSet: concentration: 1 μM, replicates: in singlicate; n = 1
assayReadout: %Inh

O=C(Nc1cccc(-c2nn3ccccc3c2-c2ccnc(Nc3cccc(C(F)(F)F)c3)n2)c1)c1c(F)cccc1F [GSK292658]    0%
FC(F)(F)c1ccc(/C=C/c2cncnc2Nc2ccc3[nH]c(Cc4ccccc4)nc3c2)cc1 [GW709199]    37%
c1ccc(Oc2ccc(Nc3ccnc4cc(-c5ccc(CNCCN6CCOCC6)o5)ccc34)cc2)nc1 [GW567145]    14%
O=C(Nc1cccc(Oc2ccc3nc(NC(=O)C4CC4)cn3n2)c1)c1ccccc1C(F)(F)F    34%
Cl.c1ccc(-c2ccc3c(Nc4ccc5[nH]ccc5c4)ccnc3c2)nc1 [GW440138]    89%
Cc1ccc(F)c(C(=O)Nc2cccc(-c3nn4ccccc4c3-c3ccnc(Nc4cccc(F)c4)n3)c2)c1F [GSK361061]    43%
Cl.NC(=O)c1cccc(Nc2nccc(Nc3ccc(Oc4c(Cl)cccc4Cl)c(Cl)c3)n2)c1 [GW659009]    0%
Oc1cc(Nc2ccnc3cc(I)ccc23)ccc1F [GW552771]    93.7%
Cc1ccc(C)c(NC(=O)NC2CCN(c3ccnc(Nc4ccc(F)cc4)n3)C2)c1 (centres unmarked) [GSK1379720]    0%
Cl.Cl.NCC(NC(=O)c1cc(-c2ccccc2)c(-c2ccnc3[nH]ccc23)s1)c1ccccc1 (centres unmarked) [GSK1321561]    18%
COc1cc(Nc2nccc(N3CCC(NC(=O)c4cc5ccccc5s4)C3)n2)cc(OC)c1OC (centres unmarked) [GSK1379760]    11%
Nc1n[nH]c2cnc(-c3ccccc3)cc12 [SB-642124]    13%
O=C(NC1CCN(c2ccnc(Nc3ccc(F)cc3)n2)C1)c1cc2ccccc2s1 (centres unmarked) [GSK1379716]    5%
Cc1ccc(C(=O)N2CC[C@@H](O)C2)cc1-n1c(C)cc(OCc2ccc(F)cc2F)c(Br)c1=O    0%
CN1CCN(Cc2cccc(-c3ccc4c(Nc5ccc(Oc6ccccc6)cc5)ccnc4c3)c2)CC1 [GW578342]    0%
CN(C)S(=O)(=O)c1cc(-c2ccc3nccc(-c4cccc(S(N)(=O)=O)c4)c3c2)cnc1N [GSK1669921]    0%
Cn1cc(-c2ccc3c(c2)CCN3C(=O)Cc2cccc(F)c2)c2c(N)ncnc21 [GSK2603358]    69%
